// AC50 lookup, one value per entry
Target: Replicative DNA helicase DnaB (Mycobacterium tuberculosis, UniProt P9WMR3)
Sequence (P9WMR3 whole entry): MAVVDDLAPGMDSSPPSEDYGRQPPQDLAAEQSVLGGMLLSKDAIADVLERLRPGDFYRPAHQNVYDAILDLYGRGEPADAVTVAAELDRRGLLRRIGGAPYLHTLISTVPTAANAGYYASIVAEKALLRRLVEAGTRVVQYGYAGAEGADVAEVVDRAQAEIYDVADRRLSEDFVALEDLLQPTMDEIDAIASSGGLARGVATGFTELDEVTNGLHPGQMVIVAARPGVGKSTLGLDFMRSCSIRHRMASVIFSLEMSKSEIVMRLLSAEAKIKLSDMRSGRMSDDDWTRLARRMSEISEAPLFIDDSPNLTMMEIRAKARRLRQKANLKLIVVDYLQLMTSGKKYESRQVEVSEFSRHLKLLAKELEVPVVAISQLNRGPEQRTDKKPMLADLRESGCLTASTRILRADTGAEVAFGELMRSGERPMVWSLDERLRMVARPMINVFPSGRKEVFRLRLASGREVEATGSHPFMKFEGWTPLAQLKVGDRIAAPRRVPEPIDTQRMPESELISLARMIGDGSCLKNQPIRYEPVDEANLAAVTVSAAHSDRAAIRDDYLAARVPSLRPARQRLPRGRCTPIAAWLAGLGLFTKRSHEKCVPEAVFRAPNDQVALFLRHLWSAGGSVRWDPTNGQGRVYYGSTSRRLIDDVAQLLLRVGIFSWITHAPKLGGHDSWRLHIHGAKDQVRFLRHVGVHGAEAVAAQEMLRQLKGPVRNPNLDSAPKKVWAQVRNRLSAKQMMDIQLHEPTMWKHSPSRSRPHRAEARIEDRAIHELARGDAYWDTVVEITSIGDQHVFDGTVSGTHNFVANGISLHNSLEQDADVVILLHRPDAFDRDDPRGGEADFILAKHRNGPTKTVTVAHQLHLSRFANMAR
Assay: DnaB intein splicing inhibitors, dose response, biochemical, cell-free fluorescence (AID 449749)
Type: functional
Calls of active or inactive are those of the source. Cut-off read from the data, not from the text of the source: actives have a measured AC50 and inactives only a lower limit.

• Cc1ccc(NC(=O)c2cnc(SCC(=O)NCC3CCCO3)n(C)c2=O)cc1 (stereo unspecified) = 10.1 µM (active)
• C/C(CC(=O)Nc1cccnc1)=N\NC(=O)c1ccc([N+](=O)[O-])c(Cl)c1 = 20.4 µM (active)
• CC(C)Oc1cccc(C(=O)C2CCCN(C(=O)c3csnn3)C2)c1 (stereo unspecified) = > 380 µM (inactive)
• CC1=CC2(O)OCCN(CCO)C2=CC1=O (stereo unspecified) = 16.9 µM (active)
• COc1cccc(N/C([S-])=C(/C(=O)c2ccc(OC(F)F)cc2)[n+]2ccccc2)c1 = 23.9 µM (active)

Specify measured AC50 for Cc1ccc(-n2nc(C)c3c2OC(N)=C(C#N)C3c2ccc(F)cc2)cc1 (stereo unspecified) . 14.2 µM (active)

Look up and report measured AC50 for this entry: COc1cccc(/C=C2\SC(=S)N(CCCC(=O)N(CCO)c3ccccc3)C2=O)c1 41.7 µM (active)

Read the entry Cc1nn(-c2ccccc2)c2c1C(c1ccco1)C(C#N)=C(N)O2 (stereo unspecified) and write its reported AC50. 5.88 µM (active)

Every entry's value here was drawn from ChEMBL document CHEMBL1201862.
